target: TplEi (Pseudomonas aeruginosa, UniProt Q9I3K3); assay: Isothermal titration calorimetry (ITC) of TplE peptides with wild type TplEi; format: binding; conditions: 25°C, 20 mM Tris-HCl pH 8.0, 100 mM NaCl, A peptides (WT) and its mutants, Figure 3D,E
Measured endpoint: pKd
One number for each entry, as −log10 of the molar value.

Please review the following examples before continuing.
Ac-DDLFASIGALWTWAWRAPKARQELLKAEQVEVDD-NH2 [G98A]; 5.88
Ac-DDLFASIGALWTWAWRGAKARQELLKAEQVEVDD-NH2 [P99A]; 7.24
Ac-DDLFASAGALWTWAWRGPKARQELLKAEQVEVDD-NH2 [I88A]; 5.32
Ac-DDLFASIGAAWTWAWRGPKARQELLKAEQVEVDD-NH2 [L91A]; 5.43
Ac-DDLFASIGALWTWAARGPKARQELLKAEQVEVDD-NH2 [W96A]; 7.51

Request the reported pKd associated with Ac-DDLFASIGALATWAWRGPKARQELLKAEQVEVDD-NH2 [W92A]
4.30

* * *

Target: TplEi S215A mutant (Pseudomonas aeruginosa, UniProt Q9I3K3, S215A)
Sequence (Q9I3K3 1-380 S215A): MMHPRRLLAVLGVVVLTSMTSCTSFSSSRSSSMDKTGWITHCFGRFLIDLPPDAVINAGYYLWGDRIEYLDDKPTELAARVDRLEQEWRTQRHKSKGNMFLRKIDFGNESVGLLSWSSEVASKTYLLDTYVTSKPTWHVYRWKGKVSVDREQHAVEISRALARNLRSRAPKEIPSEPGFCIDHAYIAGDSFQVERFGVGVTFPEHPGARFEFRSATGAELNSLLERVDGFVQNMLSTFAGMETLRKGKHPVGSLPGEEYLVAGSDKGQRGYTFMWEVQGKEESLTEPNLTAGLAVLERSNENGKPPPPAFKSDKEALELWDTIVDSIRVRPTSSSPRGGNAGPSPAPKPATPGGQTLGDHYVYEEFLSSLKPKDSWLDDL
Test: ITC of the “L” peptide with TplEi mutant S215A
Type: binding
Conditions: 25°C, TplEi S215A, Figure S3
Measured endpoint: Kd (µM)
One number for each entry, in µM.

GET /values?readout=Kd&system=TplEi S215A mutant (Pseudomonas aeruginosa, UniProt Q9I3K3, S215A)&item= Ac-DDLFASIGALWTWAWRGPKARQELLKAEQVEVDD-NH2 [“L” peptide]
7.8

* * *

biological target: TplEi R266A mutant (Pseudomonas aeruginosa); experiment: ITC of the “L” peptide with TplEi mutant R266A; assay type: binding; details: 25°C, TplEi R266A, Figure S3
Measured endpoint: Kd (µM)
Numbers only, in µM.

Give its Kd value. Item: Ac-DDLFASIGALWTWAWRGPKARQELLKAEQVEVDD-NH2 [“L” peptide]
46.9

* * *

target: TplEi E219A mutant (Pseudomonas aeruginosa, UniProt Q9I3K3, E219A); experiment: ITC of the “L” peptide with TplEi mutant E219A; type: binding; details: 25°C, TplEi E219A, Figure S3
Measured endpoint: pKd
Answers are plain numbers, as −log10 of the molar value.

Reported pKd for TplEi E219A mutant (Pseudomonas aeruginosa, UniProt Q9I3K3, E219A), given Ac-DDLFASIGALWTWAWRGPKARQELLKAEQVEVDD-NH2 [“L” peptide] ?
4.45
